Target: cNOTCH2sub (Homo sapiens)
Assay: Cell-based γ-secretase cleavage assay, cNOTCH2sub in H4 cells (Aβ-like peptide ELISA)
Details: rank among the six GSIs, number in brackets
outcome measure: rank order of inhibition of cNOTCH2sub

[[record]]
structure = "CC(C)[C@H](O)C(=O)N[C@@H](C)C(=O)N[C@@H]1C(=O)N(C)CCc2ccccc21"
endpoint_value = "[4]"

[[record]]
structure = "C[C@H](NC(=O)Cc1cc(F)cc(F)c1)C(=O)N[C@H](C(=O)OC(C)(C)C)c1ccccc1"
endpoint_value = "[6]"

[[record]]
structure = "O=C(O)CC[C@H]1CC[C@@](c2cc(F)ccc2F)(S(=O)(=O)c2ccc(Cl)cc2)CC1"
endpoint_value = "[5]"

[[record]]
structure = "CN1C(=O)[C@@H](NC(=O)[C@H](CCC(F)(F)F)[C@H](CCC(F)(F)F)C(N)=O)N=C(c2ccccc2)c2ccccc21"
endpoint_value = "[2]"

[[record]]
structure = "CC(C)(C(=O)NCC(F)(F)C(F)(F)F)C(=O)N[C@@H]1C(=O)Nc2ccccc2-c2ccccc21"
endpoint_value = "[3]"


Proceeding to the next compound to report its rank order of inhibition of cNOTCH2sub.
Return reported rank order of inhibition of cNOTCH2sub; argument: CCC[C@H](N[C@H]1CCc2cc(F)cc(F)c2C1)C(=O)Nc1cn(C(C)(C)CNCC(C)(C)C)cn1
[1]

----------
Test system: cNOTCH3sub
Assay: Cell-based γ-secretase cleavage assay, cNOTCH3sub in H4 cells (Aβ-like peptide ELISA)
Parameters: species or system human
Conditions: value in parentheses, read-out: IC50 cNOTCH3sub, from curves excluding the Aβ level > 120%
outcome measure: pIC50
Answers are plain numbers, as −log10 of the molar value.

In the examples that follow, each entry is paired with its recorded pIC50.
[[record]]
structure = "CC(C)[C@H](O)C(=O)N[C@@H](C)C(=O)N[C@@H]1C(=O)N(C)CCc2ccccc21"
endpoint_value = 6.89

[[record]]
structure = "C[C@H](NC(=O)Cc1cc(F)cc(F)c1)C(=O)N[C@H](C(=O)OC(C)(C)C)c1ccccc1"
endpoint_value = 6.58

[[record]]
structure = "O=C(O)CC[C@H]1CC[C@@](c2cc(F)ccc2F)(S(=O)(=O)c2ccc(Cl)cc2)CC1"
endpoint_value = 6.71


// next item, pIC50 requested
# query: pIC50 of entry CC(C)(C(=O)NCC(F)(F)C(F)(F)F)C(=O)N[C@@H]1C(=O)Nc2ccccc2-c2ccccc21
8.16
